target: Artificial Cell Surface (ACS): biotinylated cell surface proteins from mononuclear cells coupled to streptavidin-sepharose; assay: adsorption on ACS column, MALDI-TOF MS
Measure Name: Percent Absorbed
Kindly format the answer as number then unit.

Some solved entries appear below for comparison.
RPCFSALEVDETYVPK [trypsin-generated albumin fragment SEQ ID NO: 198 …] : 42%
KLCTVATLRETYGEMADCCAKQEPERNECFLQHK [Asp-N-generated albumin fragment SEQ ID NO: 224] : 100%
DKLCTVATLRETYGEM [Asp-N-generated albumin fragment SEQ ID NO: 222] : 65%

Here's the next entry for you.
Input: Percent Absorbed for DSISSKLKECCEKPLLEKSHCIAEVEN [Asp-N-generated albumin fragment SEQ ID NO: 221] ?
Output: 65%
